assay_protocol: yeast display, Sf9 membrane polyspecificity reagent, FACS + sequencing; frameworks hold sequencing errors
quantity: polyreactivity (PSR sort gate)

Some solved cases for reference:
sequence_entry	polyreactivity (PSR sort gate)
QVQLVESGGGLVQAGGSLRLSCAASGRTFYGNGMGWYRQAPGKRELVAAISYSGASTYYADSVKGRFTISRDNAKNTVCLLMNSLKPEDTAVYYCAAQPSVYCSLFTRASEDYWGQGTQVTVSS	high polyreactivity
QVQLVESGGGLVQAVGSLRLSCAASGFTFRGYDMRSYRQAPGKQRELVAGITWGDDSTYYADSVKRRFTISRDKAKNTGYLQMNILKPEDTAVYYCAAEYVFHDVLWWIYGYWRQGTQVTVSS	high polyreactivity
QVQLVESGGVLVQAGGSLRLICAASGSIFGWNTKGWYRQSAGKERELVAGITRGGSTYYADSVKGRFTISRDNAKNTVYLQMNRQKPEDTAVYYCAALVYRAWEFEFWGQGTQVTVSS	high polyreactivity
QVQLVESGGGLVQAGGSLRLSCAASGLIFWEYAMGWYRPAPGNERELVASITWGGGGTYYADSVKGRFTISRYNAKNTVNLHKNSLKPEDTAVYYSAVGPYYQSTQIYDYWGQGTQVTVSS	low polyreactivity

Lab note: next sequence to report on.
Notebook: `QVQLVESGGGLVQAGGSLRLSCAASGSIFERYAMGWYRPAPGKERELVAGISSDGSTYADSVKGRFTISRDNAKNTVFLQMNSLKPEDTAVYYCAAAAWDPKGSRYDYWGQGTQVTVSS` , polyreactivity (PSR sort gate) read as low polyreactivity

====

assay_protocol: yeast display, Sf9 membrane polyspecificity reagent, FACS + sequencing; frameworks hold sequencing errors
quantity: polyreactivity (PSR sort gate)

// known answers, use as guide
sequence_entry	result
QVQLVESGGGLVQAGGSLRLSCAASGFIFYNYAMGWYRQAPGKERELVAAISASGGRTYYADSVKGRFTISRDNAKNTVYLQMHRLKPEDTAVYYCIARVKYKGYDYWGQGTQVTVSS	high polyreactivity
QVQLVESGGGLVQAGGSLRLSCAASGLTLGRYARGWYRQAPGKERELVAVITGGGSTNYADSVKGRFTISRDNSKNTVYLQMNSLKPEDTAVYYCAAARSPYKYSYWGQGTQVTVSS	high polyreactivity
QVQLVESGGGLVQAGGSLRLSCAASGYTFRAYAMGWYRQAPGKEREFVAAISRSGGSTYYADSVKGRFTISRDNAKNTVYLQMNSLKPEDTAVYYCARRYARITPVYPPLNYWGQGSQVTVSS	high polyreactivity
QVQLVESGGGLVQAGGSLRLSCAASGSIFSSYSMGWYRQAPGKERELVAAISSGDSTYYADSVKGRFTISRDNAKNTVYLQMNSLKPEDTAVYYCAAPWYAWGQGTQVTVSS	low polyreactivity
QVQLVESGGGLVQAGGSLRLSCAASGSIFGVYAMGWYRQAPGKERELVAAISQSGGRTYYADSVKGRFTISRDNAKNTVYLQMNSLKPEDTAVYYCAAVVFNVYRRYWGQGTQVTVSS	high polyreactivity
QVQLVESGVGLVQAGGSLRLSCAASGRIFYRNAMGWYRQAPGKEREFVAAITFRSGGTYYADSVKGRFTISRDNAKNTVYLQMNSLKPEDTAVYYCATRYLGASRYGYWGQGTQVTVSS	high polyreactivity
QVQLVESGGGLVQAGGSLRLSCAASGSTFYSNAMGWDRQAPGKERELVASISWSSGSTYYADSVKGRFTISRDNAKNTVYLQMNSLKPEDTAVYYCATDAGGPYRFGYWGQGTQVTVSS	low polyreactivity
QVQLVESGGGLVQAGGSLRLSCAASGFTFSFNAMGWYRQAPGKERELVAAITTADSTYYADSVKGRFTISRDNAKNTVYLQMNSLKPEDTAVYYCAADSYYYGYQGQTQYGWVWYDYWGQGTQVTVSS	low polyreactivity

The sequence identified as `QVQLVESGGGLVQAGGSLRLTCAASGRILGYNDMGWYRHAPGKERELVPTSSGTSTYYADSVKGRFTISRDNAKNTVYLQMNSLKPEVTAVYYCNTDYVITLPAYDYWGQGTQVTVSS` registered its polyreactivity (PSR sort gate) at low polyreactivity

Field polyreactivity (PSR sort gate) (entry `RVQLVESGGGLVQAGGSLRLSCAASGFTIQRYAMGWYRQAPGKVRELVAGITGGGNTKYADSVKGRFTISRDNAKNTVYLQMNSLKPEDTAVYYCAARGGVPRGKFGYDYWGQGTQVTVSS` ) reads high polyreactivity

GET /value?item= `QVQLVESGGGLVQAGGSLRLSCAASGSIFNVYVMGWYRQAPGKERELVAAITWSGGTTYYADSVKGRFTISRDNAKNTVYLQMNSLKPEDTAVYYCAAEVWYFYDGYDYWGQGTQVTVSS` &field=polyreactivity (PSR sort gate) returns high polyreactivity
